// data source = patent US6380238B1

Item-by-item account of Emax
Biological target: 5-HT2C receptor (Homo sapiens)
Sequence (P28335 33-458): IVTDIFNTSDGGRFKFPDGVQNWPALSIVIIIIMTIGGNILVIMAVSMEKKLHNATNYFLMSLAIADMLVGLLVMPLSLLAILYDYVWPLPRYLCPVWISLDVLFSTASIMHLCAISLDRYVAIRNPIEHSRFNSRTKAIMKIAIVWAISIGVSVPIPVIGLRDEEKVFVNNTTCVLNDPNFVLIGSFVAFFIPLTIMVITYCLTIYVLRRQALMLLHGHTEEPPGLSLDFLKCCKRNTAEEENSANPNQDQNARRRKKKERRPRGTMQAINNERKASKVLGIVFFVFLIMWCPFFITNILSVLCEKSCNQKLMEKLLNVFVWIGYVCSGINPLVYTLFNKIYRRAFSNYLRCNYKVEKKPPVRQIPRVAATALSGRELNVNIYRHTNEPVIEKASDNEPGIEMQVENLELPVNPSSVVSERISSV
Test: Functional activity, FLIPR calcium assay in CHO cells expressing human 5-HT2C
Format: cell-based
Set-up: expressed in transfected cells; host or cells: CHO cells
Settings: CHO, read-out: h5-HT2C Relative Efficacy (%)
Where a name gives a salt, the structure may show the parent alone.

| COMPOUND | Emax |
| --- | --- |
| Cc1cc2c(cc1F)CCN2C[C@H](C)N [Example 62, Fumarate] | 54% |
| C[C@H](N)CN1CCc2cc(F)ccc21 | 68% |
| CC(C)Sc1ccc2c(c1)N(C[C@H](C)N)CC2 | 88% |
| C[C@H](N)CN1CCc2c(F)cccc21 | 51% |
